meta.source: ChEMBL document CHEMBL4184115

- studyTarget: Alpha glucosidase (Homo sapiens, UniProt O43451+P10253+P14410+Q2M2H8)
- methodDescription: Inhibition of alpha-glucosidase (unknown origin) using 4-Nitrophenyl-alpha-D-glucopyranoside as substrate incubated foe 5 mins followed by substrate addition measured after 15 mins
- Assay type: protein assay
The compounds listed here are annotated with their IC50.
assayEndpoint: IC50 (µM)

- molecularString: "O=C(/C=C(O)/C=C/c1cccc(O)c1)c1cc(Cl)ccc1O"
  uom: "µM"
  value: 36.4
- molecularString: "O=C(/C=C(O)/C=C/c1cc(O)ccc1O)c1ccc(O)cc1O"
  uom: "µM"
  value: 20
- molecularString: "O=C(/C=C(O)/C=C/c1ccc(O)c(O)c1)c1cc(Cl)ccc1O"
  uom: "µM"
  value: 15.1
- molecularString: "O=c1c(O)c(-c2ccc(O)c(O)c2)oc2cc(O)cc(O)c12"
  uom: "µM"
  value: 7.8
- molecularString: "O=C1/C(=C/c2ccccc2)CCC/C1=C\\c1cccc(O)c1"
  uom: "µM"
  value: 28.4
- molecularString: "O=C(/C=C(O)/C=C/c1ccc(O)cc1O)c1ccccc1O"
  uom: "µM"
  value: 40.7
- molecularString: "O=C1/C(=C/c2ccccc2)CCC/C1=C\\c1ccc(O)c(O)c1"
  uom: "µM"
  value: 20.3
- molecularString: "O=C(C1=C(O)/C(=C/c2ccc(O)c(O)c2)CCC1)c1ccccc1"
  uom: "µM"
  value: 41
- molecularString: "O=C(/C=C(O)/C=C/c1ccco1)c1cc(O)ccc1O"
  uom: "µM"
  value: 14.1
- molecularString: "O=C(/C=C(O)/C=C/c1ccc(O)c(O)c1)c1ccccc1O"
  uom: "µM"
  value: 14.3
- molecularString: "O=C1/C(=C/c2ccccc2)CCC/C1=C\\c1ccc(O)cc1"
  uom: "µM"
  value: 42.3
- molecularString: "O=C(/C=C(O)/C=C/c1cc(O)ccc1O)c1cc(O)ccc1O"
  uom: "µM"
  value: 19.6
